EXPERIMENTAL PROTOCOL: Inhibitory activity against IMP-1 metallo-beta-lactamase (MBL)
pIC50: −log10 of the molar value.
Could you label it True if measured pIC50 is 5 or higher, and False otherwise?

CHEMICAL STRUCTURE: O=C(O)[C@@H](S)Cc1ccc2oc3ccccc3c2c1
QUALITATIVE LABEL: True

INPUT: Given `O=C(S[C@@H](Cc1ccc2oc3ccccc3c2c1)C(=O)O)c1ccccc1` , state whether its pIC50 is at least 5.
OUTPUT: False

INPUT: Also check `C[C@@H](NC(=O)Cc1ccccc1)C(=O)S[C@H](Cc1ccc(-c2ccccc2)cc1)C(=O)O`
OUTPUT: True

INPUT: Also check `CC(=O)S[C@@H](Cc1ccc(-c2ccccc2)cc1)C(=O)O`
OUTPUT: False

INPUT: Also check `CC(=O)S[C@H](Cc1ccc(-c2ccccc2)cc1)C(=O)O`
OUTPUT: True

INPUT: Also check `C[C@@H](NC(=O)c1ccccc1)C(=O)S[C@H](Cc1ccc(-c2ccccc2)cc1)C(=O)O`
OUTPUT: True
